test system: TK-10 renal; assay: NCI tumour cell line growth inhibition, 48 h
Exercise: for every item that follows, state its recorded TGI.

Memo: `CC/C(=C(\CC)c1ccc(OCCN(CC)CC)cc1)c1ccc(OCCN(CC)CC)cc1` , reported TGI: 12.1 µM

Form field TGI, entry `Cc1ccnc2nc3[nH]c4ccccc4c3cc12` : > 100 µM

Lab note: measured TGI of `COc1cc2c3c(n(C4CCNCC4)c(=O)c2cc1OC)-c1cc2c(cc1C3=O)OCO2` was 3.65 µM

Field TGI (entry O=C1NC(Cc2c[nH]c3ccccc23)C(=O)N2C(c3ccccc3)c3[nH]c4ccccc4c3C[C@@H]12 (stereo not given in full) ) reads 91.4 µM

Data point: `CCOC(=O)c1c(NC(=O)c2ccc(OC)cc2)sc2c1CCCC2` ; TGI = > 100 µM

Lab note: `C[C@]12CCC(=O)C=C1CC[C@@H]1[C@@H]2CC[C@]2(C)C(=O)/C(=C/c3cccc(OCCN4CCOCC4)c3)C[C@@H]12` gave TGI of > 100 µM

Please fill in: TGI reported for `Cc1ccc(NC(=O)c2ccnc(N3CCCC3)c2)cc1-c1ccc(C(=O)NCC2CC2)cc1` = > 25 µM

Reported TGI ( CCOC(=O)C1C(c2ccc([N+](=O)[O-])cc2)NC(c2ccc([N+](=O)[O-])cc2)C(C(=O)OC)S1(=O)=O (stereo not given) ) = > 100 µM

Memo: `COc1cc(-c2c(C)c(C)nc(OC)c2C#N)cc(OC)c1OC` , reported TGI: > 100 µM

Briefly, TGI measured for `CCCCCCCCCCCCNC1(C)CNCCCNCCNCCCNC1` : 3.1 µM

Notebook: `C/C(=C\c1ccn(-c2ccc(N)cc2)n1)[C@@H]1C[C@@H]2O[C@]2(C)CCC[C@H](C)[C@H](O)[C@@H](C)C(=O)C(C)(C)[C@@H](O)CC(=O)O1` , TGI read as > 50 µM

Measured TGI of Cc1cc(NCC2CC/C(=C\C=C\c3ccccc3)C2=O)no1 (stereo not given) : > 100 µM

Data point: `CNC(=S)NNC1=NCCCCN1` ; TGI = > 100 µM

The molecule identified as `O=C1c2cccnc2C(=O)c2c1nc1ccccc1c2-c1cncc(-c2c3c(nc4ccccc24)C(=O)c2cccnc2C3=O)c1` registered its TGI at 2.86 µM

The molecule identified as `CC1(C)OC(=O)CC12CCN(Cc1ccccc1)CC2` registered its TGI at > 100 µM

TGI measured on `O=C1OC2(c3ccc(O)cc3Oc3cc(O)ccc32)c2c1c(-c1ccccc1)c(-c1ccccc1)c(-c1ccccc1)c2-c1ccccc1` = 59.6 µM

Please fill in: TGI reported for `O=C(O)CC1(C(=O)O)CCCCC1` = > 100 µM

Sample `CC(C)N(c1cc2c(cc1F)c(=O)c(C(=O)O)cn2-c1ccc(N2CCN(C)CC2)cn1)C(C)C` ; TGI observed: > 100 µM

Lab book: TGI of COc1ccc(C(CC(=O)c2ccccc2)C(=O)c2ccc3c(c2)OCO3)cc1 (stereo not given) noted as > 100 µM

Recorded TGI (molecule O=C(O)CCC1CCC(c2cc(F)ccc2F)(S(=O)(=O)c2ccc(Cl)cc2)CC1 (stereo not given) ): > 100 µM

So, `CCCC(=O)NNc1[nH]c(-c2ccc(OC)cc2)cc1C(=O)OCC` ? Its TGI was 30.1 µM

The molecule listed as `O=C(/C=C/c1cccs1)c1ccc(C(=O)/C=C/c2cccs2)cc1` has a reported TGI of > 100 µM

Measured TGI, `CC1=CCC[C@]2(C)C1=CC(=O)O[C@H]2c1ccoc1` : > 100 µM

# TGI (molecule: `COc1ccc(/C(Cl)=C(\C=O)c2ccc(Cl)c(Cl)c2)cc1OC` ) is 51.4 µM

# TGI of `C/C(=C\COP(=O)(O)OP(=O)(O)O)CC/C=C(\C)CNc1ccc([N+](=O)[O-])cc1` = > 100 µM

For record `Clc1ccc2nc(CCSCCc3nc4ccc(Cl)cc4[nH]3)[nH]c2c1` the listed TGI is 22.1 µM

Consider `O=C(O)/C(Cl)=C(\Cl)C(=O)Nc1ccccc1` . Its measured TGI is > 100 µM

TGI in this record for `COc1ccccc1CNCc1nc2ccccc2[nH]1` : > 100 µM

Form: molecule = CCCCCCCCCC(=O)OCC1OC(n2cc(F)c(=O)[nH]c2=O)C(N)C(OC(=O)CCCCCCCCC)C1O (stereo not given) ; TGI = > 100 µM

Record summary for NC(=O)c1cc(C2OC(CO)C(O)C2O)nn1-c1ccc([N+](=O)[O-])cc1 (stereo not given) : reported TGI = > 100 µM

The reported value for `O=C1c2ccccc2C(=O)c2c(O)c(O)cc(O)c21` in terms of TGI is > 100 µM

Record `CC(C)=CCC[C@@H](C)C1=C(Nc2ccccc2)C(O)=C(C)C(=O)C1=O` . Reported TGI: > 55.1 µM

Form: molecule = C/C1=C\CC[C@@]2(C)O[C@@H]2[C@H]2OC(=O)C(C)C2C[C@H]1O (stereo not given in full) ; TGI = > 100 µM

Looking up `O=C(/C=C/c1ccccc1)CCC1C(=O)NC(=O)NC1=O` , I see its TGI listed as > 100 µM

TGI reading for O=C(O)c1cccc(CC(Br)C(=O)O)c1 (stereo not given) : > 100 µM

TGI in this record for `COC(=O)/C=C(\S/C(=C(/c1ccc(OC)cc1)n1cc(C(=O)OC)c(C(=O)OC)n1)c1ccc(OC)cc1)C(=O)OC` : 19 µM

`Cc1ncc([N+](=O)[O-])n1CCNC(=O)CCn1ccnc1[N+](=O)[O-]` yielded TGI of > 100 µM

Noted for `Nc1ccn([C@@H]2C=C(CO)[C@@H](O)[C@H]2O)c(=O)n1` : its TGI reads 431 µM

The reported TGI of the molecule `Cc1nc2ccc(N=NN(C)C)cc2[nH]1` was > 100 µM

Note to self: TGI recorded for C=C1CC(COc2ccc3ccc(=O)oc3c2)(c2ccccc2)OC1=O (stereo not given) was 2.99 µM

---

For each of the compounds below, state its TGI.
test system: U251 CNS; test: NCI tumour cell line growth inhibition, 48 h
Numbers only; they are read as µM.

// field: TGI; key: `CC(=C(C(=O)O)C(=O)O)c1cc(-c2cccs2)cc(-c2ccc(Cl)cc2)c1O` ; value = 29.3

The recorded TGI for `Clc1ccc2nc(CCSCCc3nc4ccc(Cl)cc4[nH]3)[nH]c2c1` is 26.8

Entry under test: `CC1(C)N=C(N)N=C(N)N1c1cccc(OCc2cccc([N+](=O)[O-])c2)c1` . Its TGI was 98.9

Documented TGI of COC1/C=C\OC2(C)Oc3c(C)c(O)c4c(O)c(c(CN(C)C)c(O)c4c3C2=O)NC(=O)/C(C)=C\C=C/C(C)C(O)C(C)C(O)C(C)C(OC(C)=O)C1C (stereo not given) : 42.6

---

test system: NCI-H226 lung; experiment: NCI tumour cell line growth inhibition, 48 h
measurementLabel: TGI (µM)
Your answer should be a plain number; it is taken to be in µM.

The recorded TGI for `O=C(Nc1ccc(Br)c(Cl)c1)c1cc(F)ccc1O` is 2.69

For reference, reported TGI for `CSC(=N)N1N=C2c3ccccc3CC[C@@H]2[C@@H]1c1ccccc1` stands at 22.6

COC(=O)C1=CC2OC13CC1CCC3(C2=O)C1(C)C (centres undefined) yielded TGI of 34.2

The value of TGI measured for the molecule `C#C[C@]1(O)CC[C@H]2[C@@H]3CCC4=C/C(=N\OCCN5CCCC5)CC[C@]4(C)[C@H]3CC[C@@]21C` turned out to be 55.5

Per the records, this molecule ( `CC(C)=CCC[C@@H](C)C1=C(Nc2ccccc2)C(O)=C(C)C(=O)C1=O` ) has TGI equal to 18.1

Value of TGI reported for the molecule `c1ccc2cc(Cn3c(-c4ccc5ccccc5c4)[n+](Cc4ccc5ccccc5c4)c4ccccc43)ccc2c1` is 2.46

For reference, reported TGI for `O=C1/C(=C/c2ccc(Cl)cc2)CN(C(=O)C(Cl)Cl)C/C1=C\c1ccc(Cl)cc1` stands at 0.454

molecule `Nc1ccn([C@@H]2C=C(CO)[C@@H](O)[C@H]2O)c(=O)n1` , TGI observed: 493

TGI recorded for this molecule, `C/C(=C\c1c[nH]c2ccccc12)[N+](=O)[O-]` , is 30.6

The recorded TGI for COC1CC2CCC(C)[C@](O)(O2)C(=O)C(=O)N2CCCCC2C(=O)OC(C(C)CC2CCC(O)C(OC)C2)CC(=O)C(C)C=C(C)C(OC(=O)CN(C)C)C(OC)C(=O)C(C)CC(C)/C=C/C=C/C=C\1C (some centres undefined) is 22.3

Notebook: `CCCC(=O)NNc1[nH]c(-c2ccc(OC)cc2)cc1C(=O)OCC` , TGI read as 30.1

Recorded TGI (molecule CNC1C(O)CC(OC2C/C=C(\C)C/C(C)=C/C=C/CCC(C)CNC(=O)/C=C/C=C/C2C)OC1C (centres undefined) ): 43.8

Noted for O=C1NC(Cc2c[nH]c3ccccc23)C(=O)N2C(c3ccccc3)c3[nH]c4ccccc4c3C[C@@H]12 (some centres undefined) : its TGI reads 88.9

Per the records, this molecule ( `COC(=O)c1c2c(c(C)[n+]([O-])c1C)C(=O)C(NCc1ccc(F)c(F)c1)=CC2=O` ) has TGI equal to 8.14

The measured TGI associated with CN(C)CC1CCn2c(c(C3=C(c4cn(C)c5ccccc45)C(=O)NC3=O)c3ccccc32)C1 (centres undefined) reads 9.38

// TGI value for `COc1ccc(-c2nc(-c3nc4cc(C)c(C)cc4[nH]3)cc3c2[nH]c2ccccc23)cc1` : 54.8

Sample `CCOn1cc(C2=C(c3c[nH]c4ccccc34)C(=O)NC2=O)c2ccccc21` ; TGI observed: 27.4

Lookup result for COC(=O)C(=O)C(C(=O)C(=O)Nc1cc([N+](=O)[O-])ccc1[N+](=O)[O-])c1nc2ccc(C(=O)c3ccccc3)cc2[nH]c1=O (centres undefined) ; measured TGI: 89
